melting point reference

- compound: "COC1=C(C(=O)c2ccc(C)cc2)C(c2ccc(OC(F)(F)F)cc2)N(c2ccc(C)nn2)C1=O (stereo not drawn)"
  melting point: "206 to 207 °C"

Check the records and state melting point for COC(=O)c1ccc(N2C(=O)C(O)=C(C(=O)c3ccc(C)cc3)C2c2ccc(C(C)(C)C)cc2)nc1 (stereo not drawn) 287 to 288 °C

Please supply the value of reported melting point for the item Cc1ccc(N2C(=O)C(O)=C(C(=O)c3ccc(C(C)C)cc3)C2c2ccc(OC3CC3)cc2)nn1 (stereo not drawn) [Example 120] 285 to 288 °C

Please give the documented melting point of COC1=C(C(=O)c2ccc(C)cc2)C(c2ccc(C(C)C)cc2)N(c2ccc(C)nn2)C1=O (stereo not drawn) 248 to 249 °C

Quote melting point reported for Cc1ccc(C(=O)C2=C(O)C(=O)N(c3ccc(C(F)(F)F)cn3)C2c2ccc(C(C)C)cc2)cc1 (stereo not drawn) please. 255 to 257 °C

Retrieve melting point measured for CCOc1ccc(C2C(C(=O)c3ccc(C(C)C)cc3)=C(O)C(=O)N2c2ccc(C)nn2)nc1 (stereo not drawn) and print it. 198 to 199 °C

---

Recorded melting point values for a group of compounds are listed next.

- compound: "Cc1ccc(N2C(=O)C(O)=C(C(=O)c3ccc(C(C)C)cc3)C2c2ccc(Cl)cc2)nn1 (stereo not drawn)"
  experimental-endpoint: "melting point"
  value: "258 to 260 °C"
- compound: "CC(C)c1ccc(C(=O)C2=C(O)C(=O)N(c3ccc(Sc4ccc([N+](=O)[O-])cc4)nn3)C2c2ccc(OC(F)(F)F)cc2)cc1 (stereo not drawn)"
  experimental-endpoint: "melting point"
  value: "194 to 209 °C"
- compound: "Cc1ccc(N2C(=O)C(O)=C(C(=O)c3ccc(-c4ccccn4)cc3)C2c2ccc(OC(F)(F)F)cc2)nn1 (stereo not drawn)"
  experimental-endpoint: "melting point"
  value: "247 to 249 °C"
- compound: "COc1ccc(COc2ccc(C(=O)C3=C(O)C(=O)N(c4ccc(C)nn4)C3c3ccc(OC(F)(F)F)cc3)cc2)cc1 (stereo not drawn)"
  experimental-endpoint: "melting point"
  value: "206 to 209 °C"
- compound: "Cc1ccc(N2C(=O)C(O)=C(C(=O)c3ccc(C(C)C)cc3)C2c2ccc(OC(F)(F)F)cc2)cn1 (stereo not drawn)"
  experimental-endpoint: "melting point"
  value: "214 to 218 °C"

Could you now look at the following compound, please?
Please supply the value of reported melting point for the item COCCON=C(C1=C(O)C(=O)N(c2ccc(C)nn2)C1c1ccc(OC(F)(F)F)cc1)c1ccc(C(C)C)cc1 (mixture of isomers) 115 to 118 °C

---

Biological target: HCV NS5B genotype 1b (Hepatitis C virus genotype 1b, UniProt Q9WMX2)
Construct: The protein was expressed with a 21 amino acid C-terminal deletion to remove transmembrane domain; expressed in transfected cells; host or cells: Huh-7
Experiment: 3D-SCREEN assay (NS5B 3D-Screen platform, luciferase reporter gene)
Assay type: cell-based
Details: EC50_3DS_NS5B, Table 1, 3D-SCREEN assay results; Huh-7 cells, 24 hours with compound, firefly luciferase reporter
experimental-endpoint: pEC50
pEC50 here: minus log base 10 of the concentration, concentration in moles per litre.

# example entries with known answers
- compound: "Cc1ccc(N2C(=O)C(O)=C(C(=O)c3ccc(C(C)C)cc3)C2c2ccc(C(C)C)cc2)nn1 (centres unmarked)"
  study-target: "HCV NS5B genotype 1b (Hepatitis C virus genotype 1b, UniProt Q9WMX2)"
  pEC50: 6.40
- compound: "Cc1ccc(C(=O)C2=C(O)C(=O)N(c3ccc(N(C)C)nn3)C2c2ccc(C(C)C)cc2)cc1 (centres unmarked)"
  study-target: "HCV NS5B genotype 1b (Hepatitis C virus genotype 1b, UniProt Q9WMX2)"
  pEC50: 5.05
- compound: "Cc1ccc(N2C(=O)C(O)=C(C(=O)c3ccc(C(C)C)cc3)C2c2ccc(OC(F)(F)F)cc2)nn1 (centres unmarked)"
  study-target: "HCV NS5B genotype 1b (Hepatitis C virus genotype 1b, UniProt Q9WMX2)"
  pEC50: 7.15
- compound: "Cc1ccc(N2C(=O)C(O)=C(C(=O)c3ccc(OC(F)(F)F)cc3)C2c2ccc(C(C)C)cc2)nn1 (centres unmarked)"
  study-target: "HCV NS5B genotype 1b (Hepatitis C virus genotype 1b, UniProt Q9WMX2)"
  pEC50: 6.30

We next turn to a different compound, shown below.
# assay system HCV NS5B genotype 1b (Hepatitis C virus genotype 1b, UniProt Q9WMX2): give pEC50 of Cc1ccc(N2C(=O)C(O)=C(C(=O)c3ccc(C(C)C)cc3)C2c2ccc(C(C)C)cc2)cn1 (centres unmarked) 6.15

Hey, just so you know, these numbers are from patent US20120128630A1.
